This collection of values is drawn from PubChem BioAssay (NCI).

# Lookup of reported growth inhibition keyed by entry
Assay: NCI Yeast Anticancer Drug Screen. Data for the sgs1 strain (AID 173);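 further: 0% = growth of vehicle-only control cultures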
Details: S. cerevisiae sgs1 mutant, at 33.0 µM, active compounds read high
About 79,000 compounds went through this panel and 15% of them were active in at least one assay; those are over-represented in the sample as a whole.
The figure you give is taken to be in %; do not add the unit.

Answered examples (3):
• CCN(CC)CCN1C(=O)c2cccc3cc(OC)cc(c23)C1=O = 36
• CCOP(=O)(OCC)C(Cc1ccccc1)N=C(c1ccccc1)c1ccccc1 (stereo not given) = 93
• CC(C)[N+]([O-])(CCCNc1c2ccccc2nc2cccc([N+](=O)[O-])c12)C(C)C = 96

Entry CN(C)CCOc1ccc2c(c1)C/C(=C/c1ncc([N+](=O)[O-])n1C)C2=O — recorded growth inhibition = 70

# growth inhibition (molecule: O=C1C2C(C(=O)N1c1ccc(OCc3ccccc3)cc1)C1c3ccccc3C2C2CCCCN21 (stereo not given) ) is 19

====

Experiment: NCI Yeast Anticancer Drug Screen. Data for the rad14 strain (AID 159);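 further: 0% = growth of vehicle-treated control cultures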
Settings: S. cerevisiae rad14 strain growth inhibition; at 3.7 µM; active compounds read high
Description: Growth inhibition of yeast strains with defined genetic alterations is measured as a screen for potential anti-cancer activity. Selected strains with alterations in DNA damage repair or cell cycle control were exposed to compounds and growth inhibition was measured relative to vehicle treated controls. The strain used in this assay is rad14
This is part of a sample that, as a whole, favours compounds with a hit. Of some 79,000 tested, about 15% had one in any assay.
Catalogue of growth inhibition values
Quick note: give the figure in %, leave out the unit.

Completed entries (count: 5):
• CC(C)(CN1CCCCC1)C(=O)CC(SCCS(=O)(=O)O)c1ccc(Br)cc1 (stereo unspecified) = 19
• O=C1c2ccccc2C(=O)c2c(NC3CCCCC3)ccc(Nc3ccc(S(=O)(=O)O)cc3)c21 = -4
• CCC(=O)OCCn1c2nc(=O)[nH]c(=O)c-2nc2cc(C)c(C)cc21 = 0
• S=C(N/N=C(/c1ccccc1)c1ccccn1)N1CCCCCC1 = -4
• O=C1OC(CCl)CN1/N=C/c1ccc([N+](=O)[O-])o1 (stereo unspecified) = 0

// below: growth inhibition requested for another compound
Looking up COc1cc(C(=O)/C=C/c2ccccc2O)ccc1O , I see its growth inhibition listed as 62

====

Assay: NCI Yeast Anticancer Drug Screen. Data for the mlh1 strain (AID 171);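 further: 0% = growth of vehicle-treated control cultures of the same strain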
Conditions: S. cerevisiae mlh1 strain growth inhibition; at 3.7 µM; active compounds read high
This is part of a sample that, as a whole, favours compounds with a hit. Of some 79,000 tested, about 15% had one in any assay.
PARAMETER_MEASURED: growth inhibition (%)
Give the value in % but do not write % after it.

Entry CCCCCCCCCCNC(=O)OCC , growth inhibition reported as 2

Record summary for NC(=S)N/N=C\c1nccc2ccccc12 : reported growth inhibition = -9

====

Assay: NCI Yeast Anticancer Drug Screen. Data for the bub3 strain (AID 167)
Settings: S. cerevisiae bub3 mutant strain, at 50.0 µM
This is part of a sample that, as a whole, favours compounds with a hit. Of some 79,000 tested, about 15% had one in any assay. Active and inactive are the calls of the source. Rule as the data show it: active = growth inhibition above about 70%; inactive = the rest.
Just give me one of these, please: YES (active), NO (inactive)

* S=C(N/N=C/c1ccccn1)Nc1ccc(Cl)cc1 | YES
* CCOC(=O)[C@H]1Nc2ccccc2C2c3ccccc3CC21 (stereo not given in full) | YES
* CCOC(=O)C1=C(C(=O)c2ccccc2)C(c2ccccc2[N+](=O)[O-])C(C(=O)c2ccccc2)=C(C(=O)OCC)N1 | NO
* COc1ccc(N=C2C(=O)Nc3ccc(Br)cc32)cc1 | YES

Shift focus to the following entry.
Query: recorded result category for C(=C\c1ccccc1)/COc1ccccc1C(N1CCOCC1)n1nc2ccccc2n1 (stereo not given) in this test
YES
